Values from ChEMBL document CHEMBL3988442

Test system: Wolbachia pipientis
Assay: Anti-Wolbachia Cell-Based Screen
Type: functional
Design: scale not given: in the data most compounds retested in dose-response had high values
Conditions: 5 µM
Out of some 48,000 compounds screened, about 13,000 (27%) showed an effect of 50% or more. The list shows a part of the results.
experimentalReadout: Percent Effect
Respond with the figure and its unit, in that order.

Worked set:
COCC(=O)N1CCC2(CC(=O)N(c3cccc(F)c3)C2)C1 (configuration not stated) :: -16.31%
CN(CC1CCOC1)S(=O)(=O)c1cccc(C(=O)N2CCOCC2)c1 (configuration not stated) :: 110.2%
O=C(c1cccc(S(=O)(=O)NCCCn2cccn2)c1)N1CCOCC1 :: -8.398%
Cn1ccnc1C(=O)N1CCCC1c1ccc(C(=O)N2CCOCC2)s1 (configuration not stated) :: -4.877%
Cc1[nH]c2c(C)ccc(C)c2c1CC(=O)NCC(O)c1cccnc1 (configuration not stated) :: 0.3243%

Lookup: Look up Percent Effect for this molecule: Cc1cc(=O)n2ncnc2n1CC(O)c1ccccc1 (configuration not stated)
Found: -22.33%

Lookup: Endpoint output: Percent Effect of CC(C)(C)c1nc(CN2CCCC2Cn2cccn2)no1 (configuration not stated) . Value?
Found: 10.76%
